Source: PubChem BioAssay (NCI)

growth values for the compounds below.
System: MDA-MB-435 melanoma
assay-summary: NCI-60 one-dose screen, 48 h (100 = growth as untreated, 0 = no growth, -100 = all killed)
condition-parameters: 10 µM unless noted
This is part of a sample that, as a whole, favours compounds with a hit. Of some 83,000 tested, about 20% had one in any assay. Active and inactive are the calls of the source. How the source made its calls: active means growth percent below 10; inactive means the rest.

Look over these answered cases.
compound: CCCCCCCC/C=C\CCCCCCCCOc1ccccc1CC(=O)NCC[N+]1(C)CCCC1
growth: 71.2% (inactive)
//
compound: Clc1ccc(-n2cnc3c(Cl)ncnc32)cc1Cl
growth: 99.3% (inactive)
//
compound: CN(C)c1nc(N)nc(Cn2c(-c3nonc3N)nc3ccccc32)n1
growth: 7.85% (active)

Please examine the following record next.
What growth value was documented for this compound, CO[C@H]1CC(O[C@@H]2/C(C)=C/C[C@@H]3C[C@@H](C[C@]4(CC[C@H](C)[C@@H](C5CCCCC5)O4)O3)OC(=O)[C@@H]3C=C(C)/C(=N/O)[C@H]4OC/C(=C\C=C\[C@@H]2C)[C@]43O)O[C@@H](C)C1O (some centres undefined) ?
-86.1% (active)

====

growth values for the compounds below.
Tested on: M14 melanoma
assay-summary: NCI-60 one-dose screen, 48 h (100 = growth as untreated, 0 = no growth, -100 = all killed)
condition-parameters: 10 µM unless noted
This is part of a sample that, as a whole, favours compounds with a hit. Of some 83,000 tested, about 20% had one in any assay.
// note: answer is a bare numeric in %

Look over these answered cases.
compound: CCCCCCCC/C=C/CCCCCCCC1=NC(C)(C)CN1CC(C)O (stereo unspecified)
growth / %: 31.8

compound: C/C(=C\CCc1ccsc1)CC/C=C(\C)CCCN1CCC(CO)CC1
growth / %: -47.4

compound: Clc1ccccc1[C@@H]1C[C@@H]2Cc3cc(Br)c4ccccc4c3N1O2
growth / %: 20.8

compound: CC(=O)c1ccc2c3c(n(C)c2c1)CCCC3
growth / %: 108

API: value(readout= growth, system= M14 melanoma, query= `O=C(/C=C/c1ccc(O)c(O)c1)N1CCN(c2ccc(Cl)cc2)CC1` )
67.8

Subsequent entry: `CC(=O)NC1(C(=O)O)CCCC1`
110

Subsequent entry: `COc1ccc(Nc2ccnc(NCCCNc3ccnc4cc(Cl)ccc34)n2)cc1`
-91.9

Subsequent entry: COc1cc2c(C#N)n3c(c2cc1OC)C(=O)C(c1ccccc1)Oc1ccccc1-3 (stereo unspecified)
44.7

Subsequent entry: CC/C=C\C=C/C(=O)N/C=C/CC1Cc2cccc(O)c2C(=O)O1 (stereo unspecified)
44.2

Subsequent entry: `O=C(CCc1nnc2sc(-c3ccc(Cl)cc3Cl)nn12)c1nc2ccccc2[nH]1`
-47.5

Subsequent entry: CCC(C)CC(CC)NCCN1CCN(C(CC)CC(C)CC)C1=S (stereo unspecified)
-47.3

====

System: MDA-MB-435 melanoma
assay-summary: NCI-60 one-dose screen, 48 h
condition-parameters: 10 µM unless noted
Compounds without any hit were thinned out: in the full panel of roughly 83,000, 20% have a hit. The source made the active and inactive calls. How the source made its calls: active means growth percent below 10; inactive means the rest.
Result category, one only: true = active, false = inactive

compound: O=C(Nc1cccc(C(F)(F)F)c1)Nc1ccc(OCc2nnc(-c3ccc(Cl)cc3)o2)c(F)c1
assigned-category: false

compound: Cc1cccc(Cl)c1NC(=O)c1ccc2nc(NC(=O)NC3CC(C)(C)NC(C)(C)C3)sc2c1
assigned-category: false

compound: COc1cc(C2NC(c3ccc(Cl)cc3)C(C)C(=NC(=O)c3cnccn3)C2C)cc(OC)c1OC (stereo not given)
assigned-category: false

compound: O=[N+]([O-])c1ccc(Oc2cccc(C(F)(F)F)c2)c([N+](=O)[O-])c1
assigned-category: true

compound: Clc1ccccc1[C@@H]1C[C@@H]2Cc3cc(Br)c4ccccc4c3N1O2
assigned-category: true

Any idea what this test logged for C[N+]1(CCc2ccccc2)CCC(CCC2CC[N+](C)(CCc3ccccc3)CC2)CC1 (stereo not given) ?
false

Subsequent entry: `Clc1cccc(Cc2cn3cc(-c4ccccc4)nc3s2)c1`
false

Subsequent entry: `O=C(N1CCC(CN=c2cc3n(-c4ccc(Cl)cc4)c4ccccc4nc-3cc2Nc2ccc(Cl)cc2)CC1)N1CC1`
true

Subsequent entry: `COc1ccc(Cn2c(NCCCN(C)C)nc(=O)n(Cc3ccc(F)cc3)c2=O)cc1`
false

Subsequent entry: `Cc1cc(C(C)(C)c2cc(C)c(O)c(CN(C)C)c2)cc(CN(C)C)c1O`
false

Subsequent entry: `CCOc1cc(C(C)(C)C)ccc1C1=N[C@H](c2ccc(Cl)cc2)[C@H](c2ccc(Cl)cc2)N1C(=O)N1CCN(CC#Cc2cccc3c2CN([C@@H]2CCC(=O)NC2=O)C3=O)CC1`
false

Subsequent entry: CO[C@H]1/C=C/O[C@@]2(C)Oc3c(C)c(O)c4c(O)c(c(/C=N/N5CCN(C)CC5)c(O)c4c3C2=O)NC(=O)/C(C)=C\C=C\C(C)[C@H](O)[C@@H](C)[C@@H](O)[C@@H](C)[C@@H](OC(C)=O)[C@@H]1C (stereo not given in full)
false

Subsequent entry: `COc1ccc(-c2cc(Cc3cccs3)c(=O)n(Cn3ccc4ccccc43)n2)cc1`
false

Subsequent entry: `NC(=O)c1ncn([C@@H]2O[C@H](CO)[C@@H](O)[C@H]2O)n1`
false

Subsequent entry: `COc1ccc2c3c(c(OCCCN(C)C)nc2c1)-c1ccc(Cl)cc1C3=O`
true

Subsequent entry: `CCCCn1c(Cc2ccc(Cl)cc2)nc2cc(OC)c(OC)cc2c1=O`
false

Subsequent entry: OC(Cc1cccnc1)c1ccccc1 (stereo not given)
false

Subsequent entry: C=C1CC[C@@H]2[C@](C)(COC(C)=O)[C@H](OC(C)=O)CC[C@@]2(C)[C@@H]1CC(Nc1ccc(S(=O)(=O)Nc2cc(C)on2)cc1)C1=CCOC1=O (stereo not given in full)
false

Subsequent entry: `CCSc1nnc2n(Cc3ccccc3)c(=O)c3c(C)c(C(N)=O)sc3n12`
false

Subsequent entry: `C[n+]1ccc(C#N)c2ccccc21`
false

Subsequent entry: `CC(=O)NCCSC(=O)C(=O)SCCNC(C)=O`
false

Subsequent entry: `COc1cc(Oc2cc(-c3cccnc3)ccc2NC(=O)Nc2ccc(F)cc2F)cc(OC)c1OC`
false

Subsequent entry: `Cn1cc(-c2csc(-c3cn(C)c4ncccc34)n2)c2cc(F)cnc21`
true

====

Tested on: SF-268 CNS
assay-summary: NCI-60 one-dose screen, 48 h (100 = growth as untreated, 0 = no growth, -100 = all killed)
condition-parameters: 10 µM unless noted
The panel holds about 83,000 compounds, 20% with a hit somewhere; the sample as a whole holds those more often. Activity calls are given as the source filed them. Rule for the calls: active = growth percent below 10; inactive = the rest.
growth values for the compounds below.

Look over these answered cases.
compound: N#Cc1ccc(NC(=O)Nc2ccc(Oc3ccc(NC(=O)Nc4ccc(C#N)cc4)cc3)cc2)cc1
result: 42.1% (inactive)
--
compound: O=C(Nc1cccc(-n2cc(-c3ccncc3)c(-c3ccc(O)c(Cl)c3)n2)c1)Nc1ccc(Cl)c(C(F)(F)F)c1
result: 3.1% (active)
--
compound: C[N+]1(CCC[N+]2(C)C[C@@H]3[C@H](C2)[C@@H]2C=C[C@H]3C2)CCOCC1 (stereo not given in full)
result: 115% (inactive)
--
compound: CO[C@H]1/C=C/O[C@@]2(C)Oc3c(C)c(O)c4c(O)c(c(/C=N/N5C(C)CN(Cc6ccccc6)CC5C)c(O)c4c3C2=O)NC(=O)/C(C)=C\C=C\[C@H](C)[C@H](O)[C@@H](C)[C@@H](O)[C@@H](C)[C@H](OC(C)=O)[C@@H]1C (stereo not given in full)
result: 92.6% (inactive)
--
compound: c1coc([C@@H]2C[C@@H]3Cc4ccc5ccccc5c4N2O3)c1
result: 111% (inactive)
--
compound: CC(=O)Oc1c(C)c(OC(C)=O)c2c(c1C(C)=O)OC1CC(=O)C(C(C)=O)=C(O)C21C (stereo not given)
result: 122% (inactive)
--
compound: COc1cc(NC(=O)c2cc3ccccc3cc2O)c(OC)cc1Cl
result: 27.3% (inactive)
--
compound: CCOC(=O)C(C(C)=O)c1nc2sc3cc(Cl)ccc3n2c(=N)c1C#N (stereo not given)
result: 64.6% (inactive)

API: value(readout= growth, system= SF-268 CNS, query= `Nc1nc(Cl)c2[nH]cnc2n1` )
101% (inactive)

Subsequent entry: `O=Cc1c[nH]c2ccc(NC(=O)OCc3ccccc3)cc12`
102% (inactive)

Subsequent entry: C[C@@H]1CC[C@H]2[C@@H](C)C(O)O[C@@H]3O[C@]4(C)CC[C@@H]1[C@]32OO4 (stereo not given in full)
52.7% (inactive)

Subsequent entry: `COc1ccc2c(c1)C(=O)c1c-2c(OCCN(C)C)nc2cc(OC)ccc12`
35.7% (inactive)

Subsequent entry: COc1ccc(-c2nn(-c3cccc(Cl)c3)cc2C2CC(c3ccccc3)=NN2C(C)=O)cc1 (stereo not given)
66.9% (inactive)

Subsequent entry: `NC(N)=NN=c1c(=O)c2ccccc2c1=O`
50.6% (inactive)

Subsequent entry: CC[N+](C)(CC)CCCC(C)Nc1ccnc2cc(Cl)ccc12 (stereo not given)
91.4% (inactive)

Subsequent entry: `Cc1cc(C(C)(C)c2cc(C)c(O)c(CN(C)C)c2)cc(CN(C)C)c1O`
101% (inactive)

Subsequent entry: `COC(=O)C[C@@H]1CC=CC(=O)/C1=C(O)/C=C/c1ccccc1`
22.3% (inactive)

Subsequent entry: `CCCCCCCCCCCCCCCCCc1nccn1CCO`
73.5% (inactive)

Subsequent entry: `Cn1c(N)c(N=O)c(=O)[nH]c1=O`
110% (inactive)

Subsequent entry: `CCSc1nnc2n(Cc3ccccc3)c(=O)c3c(C)c(C(N)=O)sc3n12`
95.1% (inactive)
